measurementDescription: Pharmacokinetics following oral and intravenous delivery
Format: in vivo, rats
details: rat, serum, iv, 1 mg/kg
measuredParameter: clearance

[
  {
    "compound": "CCN1CCN(Cc2ccc(NC(=O)c3cccc(-c4ccc5nc(NC(=O)C6CC6)sc5n4)c3)cc2C(F)(F)F)CC1 [Compound 22]",
    "result": "13 mL/min/kg"
  }
]

----------
measurementDescription: Pharmacokinetics following oral and intravenous delivery
Assay type: in vivo, rats
details: rat, serum, iv, 1 mg/kg

[
  {
    "structure": "CCN1CCN(Cc2ccc(NC(=O)c3cccc(-c4ccc5nc(NC(=O)C6CC6)sc5n4)c3)cc2C(F)(F)F)CC1",
    "unitSymbol": "min",
    "Tmax": 4.8
  },
  {
    "structure": "Cc1cn(-c2cc(NC(=O)c3cccc(-c4ccc5nc(NC(=O)C6CC6)sc5n4)c3)cc(C(F)(F)F)c2)cn1",
    "unitSymbol": "min",
    "Tmax": 8.4
  }
]
